- TEST_METHOD_NOTES: Cytotoxicity against human Hep3B cells assessed as induction of cell death incubated for 2 days by MTT assay
- Assay type: functional, cell-based, Hep 3B2
- EXPERIMENTAL_CONDITIONS: 48 h
Each entry below carries its recorded IC50.

Some entries whose results are on file:
{"columns": ["COMPOUND", "QUANTITY_KIND", "RECORDED_VALUE"],
 "data": [
  ["C[C@@H]1O[C@@H](O[C@H]2[C@H](O)[C@@H](O)[C@H](O[C@H]3CC[C@]4(C)[C@H]5C=C[C@]67OC[C@@]8(CCC(C)(C)C[C@H]86)[C@@H](O)C[C@@]7(C)[C@]5(C)CC[C@H]4C3(C)C)O[C@@H]2CO[C@@H]2O[C@H](CO)[C@@H](O)[C@H](O)[C@H]2O)[C@H](O)[C@H](O)[C@H]1O", "IC50", "> 50 µM"],
  ["CO[C@@H]1C=C2C3CC(C)(C)CC[C@]3(CO)[C@H](O)C[C@@]2(C)[C@]2(C)CC[C@H]3[C@](C)(CO)[C@@H](O[C@@H]4O[C@H](C)[C@H](O)[C@H](O[C@@H]5O[C@H](CO)[C@@H](O)[C@H](O)[C@H]5O)[C@H]4O)CC[C@]3(C)[C@@H]12 (stereo partly drawn)", "IC50", "> 50 µM"]
]}

Using the record for CO[C@@H]1C=C2[C@@H]3CC(C)(C)CC[C@]3(CO)[C@@H](O)C[C@@]2(C)[C@]2(C)CC[C@H]3C(C)(C)[C@@H](O[C@@H]4O[C@H](C)[C@H](O)[C@H](O)[C@H]4O)CC[C@]3(C)[C@@H]12 , report its IC50.
> 50 µM

Taken from ChEMBL document CHEMBL3612048.
